The values you see were collected from paper PMC12392461.

Molecular target: Aryl hydrocarbon receptor (Rattus norvegicus, UniProt P41738)
Sequence (P41738 10-853): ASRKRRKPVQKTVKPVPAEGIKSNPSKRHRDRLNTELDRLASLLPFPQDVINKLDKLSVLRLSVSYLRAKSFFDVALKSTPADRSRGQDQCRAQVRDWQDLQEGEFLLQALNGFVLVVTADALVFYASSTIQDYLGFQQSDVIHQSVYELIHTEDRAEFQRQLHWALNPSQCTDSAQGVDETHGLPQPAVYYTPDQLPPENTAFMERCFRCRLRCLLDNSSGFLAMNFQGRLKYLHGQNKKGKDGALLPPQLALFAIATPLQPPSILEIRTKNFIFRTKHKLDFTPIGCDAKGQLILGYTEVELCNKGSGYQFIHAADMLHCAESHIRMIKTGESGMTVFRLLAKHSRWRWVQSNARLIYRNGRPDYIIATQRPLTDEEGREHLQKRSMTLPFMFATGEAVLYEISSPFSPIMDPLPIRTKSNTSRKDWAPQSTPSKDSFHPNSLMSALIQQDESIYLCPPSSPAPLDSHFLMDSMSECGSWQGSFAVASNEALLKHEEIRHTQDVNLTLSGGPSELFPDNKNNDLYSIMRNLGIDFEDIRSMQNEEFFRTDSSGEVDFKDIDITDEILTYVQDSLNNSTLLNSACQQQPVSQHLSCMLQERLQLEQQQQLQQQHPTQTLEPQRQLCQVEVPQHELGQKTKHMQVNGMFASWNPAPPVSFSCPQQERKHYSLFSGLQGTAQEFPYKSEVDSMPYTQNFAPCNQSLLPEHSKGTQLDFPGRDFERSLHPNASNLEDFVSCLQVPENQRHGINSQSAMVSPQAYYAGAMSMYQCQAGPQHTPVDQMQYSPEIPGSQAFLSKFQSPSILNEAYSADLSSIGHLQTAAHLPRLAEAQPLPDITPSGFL
Conditions: input of the ToxPi score, values up to 1.00
Labelling: log(1/EC10) AhR reported below 0.8 becomes fulfilled; at or above becomes not fulfilled.

Examples from the recorded data:
CC(C)c1cc(C(C)(C)c2ccc(O)c(C(C)C)c2)ccc1O [BPG]; not fulfilled
C=CCOc1ccc(S(=O)(=O)c2ccc(O)cc2)cc1 [BPS-MAE, 4-[[4-(Allyloxy)phenyl]sulfonyl]phenol]; fulfilled
O=S(=O)(c1ccc(O)cc1)c1ccccc1O [2,4-BPS, 2,4'-Dihydroxydiphenyl sulfone]; fulfilled
CC(C)CC(C)(c1ccc(O)cc1)c1ccc(O)cc1 [BP-MIBK, 4,4'-(1,3-Dimethylbutylidene)diphenol]; not fulfilled
CC(C)Oc1ccc(S(=O)(=O)c2ccc(O)cc2)cc1 [D8, 4-((4-Isopropoxyphenyl)sulfonyl)phenol]; fulfilled

Task: Quick check: does Oc1ccc(C(c2ccc(O)cc2)(C(F)(F)F)C(F)(F)F)cc1 [BPAF] have log(1/EC10) AhR under 0.8?
Result: not fulfilled

Task: Quick check: does CC(C)(c1cc(Cl)c(O)c(Cl)c1)c1cc(Cl)c(O)c(Cl)c1 [TCBPA, 2,2',6,6'-Tetrachlorobisphenol A] have log(1/EC10) AhR under 0.8?
Result: not fulfilled

Task: Quick check: does O=S(=O)(c1ccc(O)cc1)c1ccc(O)cc1 [BPS, 4,4'-Sulfonyldiphenol] have log(1/EC10) AhR under 0.8?
Result: fulfilled

Task: Quick check: does Oc1ccc(Cc2ccc(O)cc2)cc1 [BPF, Bis(4-hydroxyphenyl)methane] have log(1/EC10) AhR under 0.8?
Result: fulfilled

----------
Tested on: HEK293H (PPARγ)
Details: cytotoxicity, HEK293 (PPARγ assay cells)
Labelling: IC10, HEK293, PPARγ reported below 60 µM becomes t; at or above becomes f.

Cc1cc(Cc2cc(C)c(O)c(C)c2)cc(C)c1O [TMBPF, Bis(3,5-dimethyl-4-hydroxyphenyl)methane]; t
COC(=O)C(c1ccc(O)cc1)c1ccc(O)cc1 [Bz, Methyl bis(4-hydroxyphenyl)acetate]; f
CC(C)(c1cc(Cl)c(O)c(Cl)c1)c1cc(Cl)c(O)c(Cl)c1; t

Task: Quick check: does CC(C)(c1ccc(OCC2CO2)cc1)c1ccc(OCC2CO2)cc1 (centres unmarked) have IC10, HEK293, PPARγ under 60 µM?
Result: t

Task: Quick check: does "O=S(=O)(c1ccc(O)cc1)c1ccc(O)cc1" have IC10, HEK293, PPARγ under 60 µM?
Result: f

Task: Quick check: does "Oc1ccc(C(c2ccc(O)cc2)(C(F)(F)F)C(F)(F)F)cc1" have IC10, HEK293, PPARγ under 60 µM?
Result: t

Task: Quick check: does C=CCOc1ccc(S(=O)(=O)c2ccc(O)cc2)cc1 [BPS-MAE, 4-[[4-(Allyloxy)phenyl]sulfonyl]phenol] have IC10, HEK293, PPARγ under 60 µM?
Result: t

Task: Quick check: does "CCC(C)(c1ccc(O)cc1)c1ccc(O)cc1" have IC10, HEK293, PPARγ under 60 µM?
Result: t

----------
Assay: Abiotic CYP (aCYP) oxidation, remaining parent compound (Cparent-Ratio)
Details: Table S9, mean of two replicate experiments
Could you label it Fulfilled if measured Cparent-Ratio Mean is 0.8 or higher, and Not fulfilled otherwise?

Cc1ccc(S(=O)(=O)NC(=O)Nc2cccc(OS(=O)(=O)c3ccc(C)cc3)c2)cc1; Not fulfilled
Cc1ccc(S(=O)(=O)NC(=O)Nc2ccc(Cc3ccc(NC(=O)NS(=O)(=O)c4ccc(C)cc4)cc3)cc2)cc1; Not fulfilled
O=C(OCc1ccccc1)c1ccc(O)cc1 [BzPB, Benzyl 4-hydroxybenzoate]; Fulfilled
COC(=O)C(c1ccc(O)cc1)c1ccc(O)cc1 [Bz, Methyl bis(4-hydroxyphenyl)acetate]; Fulfilled
O=S(=O)(c1ccc(O)cc1)c1ccc(OCc2ccccc2)cc1 [BPS-MPE, 4-[4-(benzyloxy)benzenesulfonyl]phenol]; Fulfilled

Task: Does Cparent-Ratio Mean meet or surpass 0.8 for "O=S(=O)(c1ccc(O)cc1)c1ccccc1O" ?
Result: Fulfilled

Task: Does Cparent-Ratio Mean meet or surpass 0.8 for "CC(C)Oc1ccc(S(=O)(=O)c2ccc(O)cc2)cc1" ?
Result: Fulfilled

Task: Does Cparent-Ratio Mean meet or surpass 0.8 for "CC(C)c1cc(C(C)(C)c2ccc(O)c(C(C)C)c2)ccc1O" ?
Result: Fulfilled

Task: Does Cparent-Ratio Mean meet or surpass 0.8 for CC(C)(c1ccc(O)cc1)c1ccc(O)cc1 [BPA, 4,4'-(Propane-2,2-diyl)diphenol, reference compound] ?
Result: Fulfilled

Task: Does Cparent-Ratio Mean meet or surpass 0.8 for "CC1(C)[C@H](O)C(C)(C)[C@H]1O" ?
Result: Fulfilled

Task: Does Cparent-Ratio Mean meet or surpass 0.8 for CC1(C)C(O)C(C)(C)C1O (racemic) ?
Result: Fulfilled

Task: Does Cparent-Ratio Mean meet or surpass 0.8 for Cc1cc(Cc2cc(C)c(O)c(C)c2)cc(C)c1O [TMBPF, Bis(3,5-dimethyl-4-hydroxyphenyl)methane] ?
Result: Not fulfilled

----------
Consider the following compounds and their measured EC10, before oxidation readings.
Biological target: Estrogen Receptor ERα (Homo sapiens)
Assay: aCYP oxidation followed by ERα-UAS-bla GripTite assay (TK-Ratio of effect)
Assay type: cell-based
Conditions: Table S10; ERα; in M
Respond numerically, and do not add a unit to the figure.

// worked examples, EC10, before oxidation included
CC(C)c1cc(C(C)(C)c2ccc(O)c(C(C)C)c2)ccc1O; 9.02E-07
O=S(=O)(c1ccc(O)cc1)c1ccc(O)cc1; 1.65E-06
Oc1ccc(Sc2ccc(O)cc2)cc1; 2.87E-07
CC(C)Oc1ccc(S(=O)(=O)c2ccc(O)cc2)cc1; 1.21E-05
O=S(=O)(c1ccc(O)cc1)c1ccccc1O [2,4-BPS, 2,4'-Dihydroxydiphenyl sulfone]; 3.59E-05

Task: EC10, before oxidation lookup needed for COC(=O)C(c1ccc(O)cc1)c1ccc(O)cc1 [Bz, Methyl bis(4-hydroxyphenyl)acetate] , thanks.
Result: 9.90E-07

Task: EC10, before oxidation lookup needed for C=CCOc1ccc(S(=O)(=O)c2ccc(O)cc2)cc1 [BPS-MAE, 4-[[4-(Allyloxy)phenyl]sulfonyl]phenol] , thanks.
Result: 1.26E-05

Task: EC10, before oxidation lookup needed for CC1(C)C(O)C(C)(C)C1O (racemic) , thanks.
Result: 1.18E-02

----------
Consider the following compounds and their measured IC10, linear transformed readings.
Tested on: HEK293H (PPARγ)
Conditions: PPARγ bioassay cytotoxicity; dosing range all
Respond numerically, and do not add a unit to the figure.

// worked examples, IC10, linear transformed included
Oc1ccc(C2(c3ccc(O)cc3)CCCCC2)cc1 [BPZ, 1,1'-Bis(4-hydroxyphenyl)cyclohexane]; 4.22E-06
C=CCOc1ccc(S(=O)(=O)c2ccc(O)cc2)cc1 [BPS-MAE, 4-[[4-(Allyloxy)phenyl]sulfonyl]phenol]; 1.96E-05
CC1(C)C(O)C(C)(C)C1O (racemic) [r-TMCD]; 6.71E-03

Now take the following compound into account.
Task: IC10, linear transformed lookup needed for CC(C)(c1ccc(O)c(-c2ccccc2)c1)c1ccc(O)c(-c2ccccc2)c1 [BPPH, 2,2-Bis(2-hydroxy-5-biphenylyl)propane] , thanks.
Result: 4.34E-06

----------
Target: Estrogen Receptor ERα (Homo sapiens, UniProt P03372)
Sequence (P03372 311-547 limits assumed): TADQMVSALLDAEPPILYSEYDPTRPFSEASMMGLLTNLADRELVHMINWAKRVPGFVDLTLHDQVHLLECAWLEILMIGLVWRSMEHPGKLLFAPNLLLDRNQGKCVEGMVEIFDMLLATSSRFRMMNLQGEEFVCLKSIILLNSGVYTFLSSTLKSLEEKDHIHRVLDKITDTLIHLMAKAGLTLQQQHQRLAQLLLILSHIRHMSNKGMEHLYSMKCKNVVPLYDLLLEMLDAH
Experiment: cell-based
Conditions: read-out: Emax%ERα
Consider the following compounds and their measured Emax readings.
Note: unit % is implicit; provide only the numeric part.

CC(C)(c1ccc(O)cc1)c1ccc(O)cc1 [BPA, 4,4'-(Propane-2,2-diyl)diphenol, reference compound]; 38
CC(C)Oc1ccc(S(=O)(=O)c2ccc(O)cc2)cc1; 18
O=C(OCc1ccccc1)c1ccc(O)cc1 [BzPB, Benzyl 4-hydroxybenzoate]; 53

Task: Emax lookup needed for Cc1cc(Cc2cc(C)c(O)c(C)c2)cc(C)c1O [TMBPF, Bis(3,5-dimethyl-4-hydroxyphenyl)methane] , thanks.
Result: 0

Task: Emax lookup needed for COC(=O)C(c1ccc(O)cc1)c1ccc(O)cc1 [Bz, Methyl bis(4-hydroxyphenyl)acetate] , thanks.
Result: 32

----------
Molecular target: Estrogen Receptor ERα (Homo sapiens, UniProt P03372)
Assay: aCYP oxidation followed by ERα-UAS-bla GripTite assay (TK-Ratio of effect)
Assay type: cell-based
Conditions: Table S11; ERα; in M
measurement-kind: EC10, before oxidation
Respond numerically, and do not add a unit to the figure.

// worked examples, EC10, before oxidation included
CC(C)(c1ccc(O)cc1)c1ccc(O)cc1 [BPA, 4,4'-(Propane-2,2-diyl)diphenol, reference compound]; 3.74E-07
Oc1ccc(Sc2ccc(O)cc2)cc1; 2.28E-06

Task: EC10, before oxidation lookup needed for "CC(C)c1cc(C(C)(C)c2ccc(O)c(C(C)C)c2)ccc1O" , thanks.
Result: 9.71E-06

Task: EC10, before oxidation lookup needed for Oc1ccc(Cc2ccc(O)cc2)cc1 [BPF, Bis(4-hydroxyphenyl)methane] , thanks.
Result: 1.26E-06
